B1: Zinc finger homeobox protein 4, residues 2183 to 2238; numbered along this chain, Q86UP3 (parent)
chain: SSRTRFTDYQLRVLQDFFDTNAYPKDDEIEQLSTVLNLPTRVIVVWFQNARQKARK

variants of: B1; assay: abundance fitness (aPCA) (normalised: wild type 0, dead -1); higher = more abundant; growth selection in yeast, the domain comes from the species named; settings: Homo sapiens
Provide the recorded abundance fitness for the entries that follow.
Give bare numbers.

These recorded examples may help you get a feel for the data.
# VARIANT ANNOTATION, abundance fitness
measured = [
    ("Q15T", -0.069),
    ("T20I", -0.308),
    ("F18P", -0.891),
]

I need abundance fitness for every entry listed below, if you could help.
1. D8T
2. K25N
3. L14W
4. I29W
5. S33T
6. L36C
7. Q10L
8. S1A

Result:
[-0.257, -0.156, -0.895, -0.352, -0.005, 0.008, -0.736, 0.062]
